- Tested on: 565232-114-T-J1-PDC complex spheroid viability;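 note: spheroids exposed to compounds for 7 days before readout; 100% = DMSO vehicle wells with luminescence normalized to vehicle control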
- Test Name: Anticancer human tumor 565232-114-T-J1-PDC patient-derived bladder carcinoma cell line growth inhibition [CLK]
- Condition Notes: second compound 0.1 µM; first compound 1 µM; stronger effect = lower value
// reported viability, T/C per item
Just the number in %, nothing appended.

Some solved cases for reference:
- Compound: "C#Cc1c(F)ccc2cc(O)cc(-c3ncc4c(N5CC6CCC(C5)N6)nc(OCC56CCCN5CC(F)C6)nc4c3F)c12 (centres undefined) + CN1CCN(c2cc(C(=O)Nc3cc4cc(-c5cnn(C)c5)ccc4cn3)ccn2)CC1"
  viability, T/C, %: 86
- Compound: "CC(=O)O[C@H]1C(=O)[C@@]2(C)[C@H]([C@H](OC(=O)c3ccccc3)[C@]3(O)C[C@H](OC(=O)[C@H](O)[C@@H](NC(=O)c4ccccc4)c4ccccc4)C(C)=C1C3(C)C)[C@]1(OC(C)=O)CO[C@@H]1C[C@@H]2O + CN1CCN(c2cc(C(=O)Nc3cc4cc(-c5cnn(C)c5)ccc4cn3)ccn2)CC1"
  viability, T/C, %: 16.3
- Compound: "Nc1ccn(C2OC(CO)C(O)C2(F)F)c(=O)n1 (centres undefined) + CN1CCN(c2cc(C(=O)Nc3cc4cc(-c5cnn(C)c5)ccc4cn3)ccn2)CC1"
  viability, T/C, %: 32.8
- Compound: "CCc1c2c(nc3ccc(O)cc13)-c1cc3c(c(=O)n1C2)COC(=O)[C@]3(O)CC + CNC(=O)c1ccc(Nc2nc(OC3CCCC3)c3c(-c4ccc5nc(C)oc5c4)c[nH]c3n2)c(OC)c1"
  viability, T/C, %: 1.61
- Compound: "CC(=O)O[C@H]1C(=O)[C@@]2(C)[C@H]([C@H](OC(=O)c3ccccc3)[C@]3(O)C[C@H](OC(=O)[C@H](O)[C@@H](NC(=O)c4ccccc4)c4ccccc4)C(C)=C1C3(C)C)[C@]1(OC(C)=O)CO[C@@H]1C[C@@H]2O + CNC(=O)c1ccc(Nc2nc(OC3CCCC3)c3c(-c4ccc5nc(C)oc5c4)c[nH]c3n2)c(OC)c1"
  viability, T/C, %: 29.6

May I ask what viability, T/C has been recorded for CCN1CCN(Cc2ccc(Nc3ncc(F)c(-c4cc(F)c5nc(C)n(C(C)C)c5c4)n3)nc2)CC1 + CNC(=O)c1ccc(Nc2nc(OC3CCCC3)c3c(-c4ccc5nc(C)oc5c4)c[nH]c3n2)c(OC)c1 ? 66.7

I'd like to know its viability, T/C. The compound in question is CCc1c2c(nc3ccc(O)cc13)-c1cc3c(c(=O)n1C2)COC(=O)[C@]3(O)CC + CN1CCN(c2cc(C(=O)Nc3cc4cc(-c5cnn(C)c5)ccc4cn3)ccn2)CC1 3.53

Tell me the measured viability, T/C of O=C(c1cc(Cc2n[nH]c(=O)c3ccccc23)ccc1F)N1CCN(C(=O)C2CC2)CC1 + CN1CCN(c2cc(C(=O)Nc3cc4cc(-c5cnn(C)c5)ccc4cn3)ccn2)CC1 , please. 115

Sample CC1COCCN1c1cc(C2(S(C)(=N)=O)CC2)nc(-c2ccnc3[nH]ccc23)n1 (centres undefined) + CNC(=O)c1ccc(Nc2nc(OC3CCCC3)c3c(-c4ccc5nc(C)oc5c4)c[nH]c3n2)c(OC)c1 — what was its viability, T/C? 44.2
